system: HCC 2998; assay: NCI tumour cell line growth inhibition, 48 h
Calls of active or inactive are those of the source. No stated cut-off is given here; in the data, active = GI50 up to about 1.1 µM and inactive = higher.
Select the correct class. Options are true (1) = active, false (0) = inactive and nothing else.

Q: Entry CC1(C)CCC[C@@]2(C)C1C(=O)[C@@H]1O[C@]1(C)[C@@H]2CO (some centres not stated) : call = ?
A: false (0)

Q: Entry `COc1ccc2nc3cc(Cl)ccc3c(NCCCN3CCN(CCCNc4ccc5nnn6c7ccccc7c(=O)c4c56)CC3)c2c1` : call = ?
A: true (1)

Q: Entry COc1ccc(S(=O)(=O)n2c3c(c4ccccc42)[C@@H]2[C@@H](CCCN2C(=O)C[S+]([O-])c2ccc(C)cc2)[C@H](Cl)C3)cc1 (some centres not stated) : call = ?
A: false (0)

Q: Entry CC1(C)C2CCC1(C)C(N/C(Sc1ccccc1)=C(/C(Cl)=C(Cl)Cl)[N+](=O)[O-])C2 (configuration not stated) : call = ?
A: false (0)

Q: Entry COc1ccc(-c2cc(=O)c3c(OC)c(OC)c(OC)c(OC)c3o2)cc1 [TANGERETIN] : call = ?
A: false (0)

Q: Entry `O=C1NC(N/N=C/c2ccccc2)=N/C1=C\c1ccco1` : call = ?
A: false (0)

Q: Entry CN1CCCCC1CCN1CCCCC1 (configuration not stated) : call = ?
A: false (0)

Q: Entry COC(=O)NC(Cc1ccccc1)NC(=O)OC(C)(C)C (configuration not stated) : call = ?
A: false (0)

Q: Entry `c1cc2c(cc1NC1=NCCO1)CCCC2` : call = ?
A: false (0)

Q: Entry `O=C(NC1CCCCC1)c1cc2ccccc2cc1O` : call = ?
A: false (0)

Q: Entry `O=C(Nc1ccccc1)Oc1ccc(C(=S)Nc2ccc(Br)cc2)cc1` : call = ?
A: false (0)

Q: Entry `CN/C(=N\c1ccc(OC)c2ccccc12)SC` : call = ?
A: false (0)

Q: Entry `O=C(Nn1c(-c2ccccc2)nc2ccccc2c1=O)c1cccc([N+](=O)[O-])c1` : call = ?
A: false (0)

Q: Entry `Cc1ccc(Cl)cc1/N=N/C(=O)NNc1cc(Cl)ccc1C` : call = ?
A: false (0)

Q: Entry CN(C)CCN1C(=O)c2cccc3cc(N)cc(c23)C1=O [AMONAFIDE] : call = ?
A: false (0)

Q: Entry `C=CC(C)(C)n1cc(C2=C(O)C(=O)C(c3c(CC=C(C)C)[nH]c4ccccc34)=C(O)C2=O)c2ccccc21` : call = ?
A: true (1)

Q: Entry `COc1ccc2c(c1)C1=NCCN(CCO)c3ccc([N+](=O)[O-])c(c31)N2` : call = ?
A: true (1)

Q: Entry `O=[N+]([O-])c1cc2c(c3nonc13)OCCCCO2` : call = ?
A: false (0)

Q: Entry `O=C(O)CC/C(=N\Nc1nsc2ccccc12)c1ccc(Cl)cc1` : call = ?
A: false (0)

Q: Entry `CC1(C)CC2=NO[Se]3=C2C(=NO3)C1` : call = ?
A: false (0)

Q: Entry `CN1C(NN)=NS(=O)(=O)c2ccccc21` : call = ?
A: false (0)

Q: Entry `O=C/C=C/c1ccco1` : call = ?
A: false (0)

Reference for the values: ChEMBL document CHEMBL1201862
